# TARGET_UNDER_TEST: Glucose transporter (Leishmania mexicana)
# METHOD_NOTES: ST_JUDE_LEISH: Cytotoxicity at 2uM final concentration against transgenic Leishmania Mexicana promastigotes LmGT2 that are glucose transport deficient and complemented with the L. Mexicana glucose transporter 2. Activity is measured by DNA content using SYBR green in vitro
# Format: functional

{"columns": ["MOLECULE", "inhibition, %"],
 "data": [
  ["NS(=O)(=O)CCc1cccc(Nc2nccc(-c3c(-c4cccc(NC(=O)c5c(F)cccc5F)c4)nn4ccccc34)n2)c1", 1.61],
  ["COc1cc2c(cc1C(F)(F)F)N(C(=O)Nc1cc(F)c(F)c(-c3cccnc3)c1)CC2", -4.39],
  ["COc1ccc(NC(=O)/C=C/c2ccccc2Cl)cc1OCCN1CCC(NC2CC2)CC1", 4.32],
  ["CC(C)c1cc2c(cc1O)C(Cc1ccccc1Cl)N(C)CC2 (centres undefined)", 0.89],
  ["O=C(Nc1ccsc1)Nc1cccc(-c2ccc(-c3nc4cc(C(F)(F)F)ccc4[nH]3)cc2)c1", 7.95],
  ["Cc1cc(F)ccc1[C@H]1C[C@H](N2CCOCC2)CCN1C(=O)N(C)[C@@H](C)c1cc(C(F)(F)F)cc(C(F)(F)F)c1", -0.74],
  ["C=CCOc1ccc(C2C(C(=O)OC)=C(C)NC3=C2C(=O)c2ccccc23)cc1OC (centres undefined)", 1.15],
  ["CCN(CC)CCOc1ccc(C(O)(C#CC(O)(c2ccccc2)c2ccc(OCCN(CC)CC)cc2)c2ccccc2)cc1 (centres undefined)", 1.94],
  ["O=[N+]([O-])c1cc(/C=N/Nc2nc3nonc3nc2Nc2ccc(F)cc2)c(Cl)cc1Cl", -0.83]
]}

---

This section presents compounds with their documented inhibition values.
# TARGET_UNDER_TEST: Glucose transporter (Leishmania mexicana) (UniProt O61059)
# METHOD_NOTES: ST_JUDE_LEISH: Cytotoxicity at 2uM final concentration against transgenic Leishmania Mexicana promastigotes LmGT2 that are glucose transport deficient and complemented with the L. Mexicana glucose transporter 2. Activity is measured by DNA content using SYBR green in vitro
# Assay type: functional

{"columns": ["COMPOUND", "inhibition [%]"],
 "data": [
  ["COc1ccc(CCn2c(=N)c(C(=O)NCc3cccnc3)cc3c(=O)n4ccccc4nc32)cc1", 7.6],
  ["CC(=O)Oc1c(C(=O)C2CCC(C(C)(C)C)CC2)c(OC(C)=O)c2ccccc2c1OC(C)=O (centres undefined)", 7.73],
  ["NC1=NC(c2ccccc2)(c2ccccc2)C(=O)N1CCCCc1ccccn1", -2.5],
  ["O=C(Nc1cc(Cl)cc(Cl)c1)c1cc(Cl)c(=O)n(Cc2cccc(Cl)c2)c1", -1.24],
  ["CCN(CC)CCCNc1cc[n+]([O-])c2cc3ccccc3cc12", -1.63],
  ["CCOc1ccccc1C(=O)Nc1cccc(-c2nc3ncccn3c2C)c1", -0.34],
  ["COc1ccccc1CN1CCC(NC(=O)c2ccc(-c3ccc(N(C)C)cc3)s2)CC1", 8.12],
  ["CN1CCCN(c2ccnc3cc4c(cc23)N(C(=O)c2ccccc2Cl)CC4)CC1", -0.18],
  ["COc1ccc(CNC2Cc3ccccc3C2)cc1-c1ccc(S(=O)(=O)NCCc2ccccn2)s1", 2.04],
  ["Cc1cc(OCCCNc2nc(NCCc3ccc(O)cc3)nc(N3CCNCC3)n2)c(Cl)c(C)c1Cl", 0.27],
  ["Fc1cccc2sc(Nc3nc(-c4ccccn4)cs3)nc12", -5.6],
  ["COCCOc1ccc(C(F)(F)F)cc1NC(=O)Cc1c(F)cccc1Cl", 6.01],
  ["CCNC(=O)N[C@@H]1CN[C@@H](C#Cc2cc3c(Nc4ccc(OCc5cccc(F)c5)c(Cl)c4)ncnc3s2)C1", -0.46],
  ["CC(=O)Nc1ccc(C(=O)Nc2cccc(-c3ccc(-c4nc5ccccc5[nH]4)cc3)c2)cn1", 5.92],
  ["OC(c1cccc2ccccc12)C1CN(CCc2ccccc2)CCC1(O)c1ccccc1 (centres undefined)", 3.51],
  ["CCc1cn2c3c(cc(C(=O)N[C@@H](Cc4ccccc4)[C@H](O)CN[C@@H](C)CC)cc13)N(C)S(=O)(=O)CC2", -0.58],
  ["COc1cc(Nc2nccc(N3CCC(NC(=O)c4cccc(NC(C)=O)c4)C3)n2)cc(OC)c1OC (centres undefined)", -0.85],
  ["CN1CCN(c2cc3c(Nc4ccc5c(cnn5Cc5ccccc5)c4)ncnc3cn2)CC1", 2.17],
  ["CCOC(=O)C1=C(C)NC(C)=C(C(=O)OCC)C1(C(=O)OCc1ccccc1)c1cccc(C(F)(F)F)c1", 4.11]
]}
